- System name: T1, hFcRn with a His-tag (human, UniProt P55899 24-297; P61769 21-119)
- T1 construct: It may be the same product as m1; also called huFcRn (His tagged molecule, BPS); not shown: His-tag
- T1 sequence (P55899 24-297 limits assumed, chain 1 of 2): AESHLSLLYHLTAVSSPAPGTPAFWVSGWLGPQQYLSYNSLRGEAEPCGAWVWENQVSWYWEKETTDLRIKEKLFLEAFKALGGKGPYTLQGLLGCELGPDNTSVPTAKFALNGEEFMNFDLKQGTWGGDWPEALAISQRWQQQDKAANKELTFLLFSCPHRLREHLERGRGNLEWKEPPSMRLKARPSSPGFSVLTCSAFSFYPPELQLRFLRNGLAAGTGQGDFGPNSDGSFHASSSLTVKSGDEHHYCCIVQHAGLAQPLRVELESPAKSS
- T1 sequence (P61769 21-119 limits assumed, chain 2 of 2): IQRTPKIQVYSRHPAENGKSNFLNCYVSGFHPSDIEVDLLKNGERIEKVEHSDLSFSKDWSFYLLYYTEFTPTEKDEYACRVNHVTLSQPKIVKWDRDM
- Assay details: BLI (Octet), His-hFcRn on Ni-NTA biosensor, Affimer 40 nM, pH 7.4, 1:1 model
Item-by-item account of Kd
# value in nM; strip the unit string

Solved entries:
- Binder: "FcRn-109 (designed binder, AFFIMER (stefin A variant)) MIPRGLSEAKPATPEIQEIVDKVKPQLEEKTNETYGKLEAVQYKTQVLARPHNRDSHRSTNYYIKVRAGDNKYMHLKVFNGPDRKHRKHWHADRVLTGYQVDKNKDDELTGFHHHHHH"
  Kd (nM): 61.2
- Binder: "FcRn-18 (designed binder, AFFIMER (stefin A variant)) MIPRGLSEAKPATPEIQEIVDKVKPQLEEKTNETYGKLEAVQYKTQVLAETPHERHKTSTNYYIKVRAGDNKYMHLKVFNGPKRWLKHHAHADRVLTGYQVDKNKDDELTGFHHHHHH"
  Kd (nM): 65
- Binder: "FcRn-48 (designed binder, AFFIMER (stefin A variant)) MIPRGLSEAKPATPEIQEIVDKVKPQLEEKTNETYGKLEAVQYKTQVLAKPKYHHHDISTNYYIKVRAGDNKYMHLKVFNGPGHHAKPHRWADRVLTGYQVDKNKDDELTGFHHHHHH"
  Kd (nM): 59.3
- Binder: "FcRn-16 (designed binder, AFFIMER (stefin A variant)) MIPRGLSEAKPATPEIQEIVDKVKPQLEEKTNETYGKLEAVQYKTQVLAKHHHHKHQHSTNYYIKVRAGDNKYMHLKVFNGPVFLHNESHQADRVLTGYQVDKNKDDELTGFHHHHHH"
  Kd (nM): 83.3
- Binder: "FcRn-88 (designed binder, AFFIMER (stefin A variant)) MIPRGLSEAKPATPEIQEIVDKVKPQLEEKTNETYGKLEAVQYKTQVLAHHTKHHSRWSTNYYIKVRAGDNKYMHLKVFNGPVNHISHAPIADRVLTGYQVDKNKDDELTGFHHHHHH"
  Kd (nM): 82.8

Query :: Name the reported Kd value associated with the binder FcRn-176 (designed binder, AFFIMER (stefin A variant)) MIPRGLSEAKPATPEIQEIVDKVKPQLEEKTNETYGKLEAVQYKTQVLAGRHHESHKSSTNYYIKVRAGDNKYMHLKVFNGPFQHKLHKHHADRVLTGYQVDKNKDDELTGFHHHHHH
Result :: 57.9

Query :: Here is the next binder: FcRn-12 (designed binder, AFFIMER (stefin A variant)) MIPRGLSEAKPATPEIQEIVDKVKPQLEEKTNETYGKLEAVQYKTQVLAKVKTHDHQRSTNYYIKVRAGDNKYMHLKVFNGPIHQHHSQDWADRVLTGYQVDKNKDDELTGFHHHHHH
Result :: 123

All values here come from patent US20230097573A1.
